# IL-1β secretion, LPS treated monocytes, at 10 µM listing for each entry below
tested-target: T1, IL10Rα/IL2Rγ receptor (human) (UniProt Q13651)
T1 sequence (looked up) 1: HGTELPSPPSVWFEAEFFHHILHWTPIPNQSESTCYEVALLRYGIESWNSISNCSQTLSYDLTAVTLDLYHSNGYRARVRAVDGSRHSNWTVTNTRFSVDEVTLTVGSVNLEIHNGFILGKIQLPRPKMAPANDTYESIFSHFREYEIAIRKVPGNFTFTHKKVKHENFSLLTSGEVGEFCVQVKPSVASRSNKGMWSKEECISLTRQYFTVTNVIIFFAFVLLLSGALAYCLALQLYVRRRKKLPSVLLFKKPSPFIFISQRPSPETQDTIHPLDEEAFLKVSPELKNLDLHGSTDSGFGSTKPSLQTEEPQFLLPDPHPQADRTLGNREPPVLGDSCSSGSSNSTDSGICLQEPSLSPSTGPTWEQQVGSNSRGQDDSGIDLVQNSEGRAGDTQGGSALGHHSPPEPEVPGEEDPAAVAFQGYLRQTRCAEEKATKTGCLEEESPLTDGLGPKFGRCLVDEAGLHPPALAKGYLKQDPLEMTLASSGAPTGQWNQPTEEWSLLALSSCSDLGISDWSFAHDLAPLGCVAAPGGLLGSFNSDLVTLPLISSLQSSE
T1 sequence (looked up) 2: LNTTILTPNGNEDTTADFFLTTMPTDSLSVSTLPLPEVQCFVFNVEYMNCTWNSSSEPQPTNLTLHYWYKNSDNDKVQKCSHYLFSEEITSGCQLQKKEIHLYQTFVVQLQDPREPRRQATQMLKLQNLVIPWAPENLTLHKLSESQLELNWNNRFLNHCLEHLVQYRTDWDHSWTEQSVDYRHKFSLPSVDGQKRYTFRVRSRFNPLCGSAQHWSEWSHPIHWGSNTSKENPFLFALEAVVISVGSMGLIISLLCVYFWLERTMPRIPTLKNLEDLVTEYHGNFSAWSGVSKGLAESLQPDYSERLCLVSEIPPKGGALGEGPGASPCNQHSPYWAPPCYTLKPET
assay-summary: cell-based or functional assay
Response body: numeric value in pg/mL, unit text excluded.

Example binders with recorded IL-1β secretion, LPS treated monocytes, at 10 µM:
[
  {
    "binder": "hIL10Ra_VHH14 - hIL2Rg_VHH19, linker GGSGGS, tag his (bispecific antibody, not shown: small tags and cut ends) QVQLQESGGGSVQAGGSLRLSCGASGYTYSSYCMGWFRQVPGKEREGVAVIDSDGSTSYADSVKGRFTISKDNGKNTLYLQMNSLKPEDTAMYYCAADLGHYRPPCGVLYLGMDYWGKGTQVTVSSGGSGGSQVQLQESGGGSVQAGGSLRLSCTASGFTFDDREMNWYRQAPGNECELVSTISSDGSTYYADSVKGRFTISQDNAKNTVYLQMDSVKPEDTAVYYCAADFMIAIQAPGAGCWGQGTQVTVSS",
    "unit-descriptor": "pg/mL",
    "observed": 6420
  },
  {
    "binder": "hIL10Ra_VHH14 - hIL2Rg_VHH19, linker GGGSGGGS, tag his (bispecific antibody, not shown: small tags and cut ends) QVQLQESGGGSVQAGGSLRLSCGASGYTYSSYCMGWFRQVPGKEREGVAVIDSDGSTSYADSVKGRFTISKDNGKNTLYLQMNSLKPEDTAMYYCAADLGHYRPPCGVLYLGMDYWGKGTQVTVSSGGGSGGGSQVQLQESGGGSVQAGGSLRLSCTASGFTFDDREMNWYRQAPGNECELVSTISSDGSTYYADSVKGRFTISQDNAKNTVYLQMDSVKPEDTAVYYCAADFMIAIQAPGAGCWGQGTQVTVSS",
    "unit-descriptor": "pg/mL",
    "observed": 6020
  }
]

Report IL-1β secretion, LPS treated monocytes, at 10 µM for hIL10Ra_VHH14 - hIL2Rg_VHH19, linker GGGS, tag his (bispecific antibody, not shown: small tags and cut ends) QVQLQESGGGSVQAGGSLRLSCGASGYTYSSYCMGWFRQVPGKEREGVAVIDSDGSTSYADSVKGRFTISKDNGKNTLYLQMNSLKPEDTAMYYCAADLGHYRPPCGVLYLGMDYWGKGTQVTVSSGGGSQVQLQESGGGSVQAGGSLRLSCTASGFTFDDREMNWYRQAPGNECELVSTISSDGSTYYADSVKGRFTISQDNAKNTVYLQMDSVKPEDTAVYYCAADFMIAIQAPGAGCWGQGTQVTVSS please.
5950

Numbers sourced from patent US20250163162A1.
